# Test target: Plant p-Hydroxyphenylpyruvate Dioxygenase (Arabidopsis enzyme overexpressed in E. coli) (Arabidopsis thaliana, UniProt P93836)
# Construct: The first 11 cycles identified […]; initiator Met (ATG start codon put in front of Ser30 by oligos CAM32/CAM33) (N, cleaved yes); made in house; host or cells: E. coli BL21(DE3) carrying pE24CP1 (pET24c(+) backbone), IPTG-induced; cell extract
# Sequence (P93836 30-445): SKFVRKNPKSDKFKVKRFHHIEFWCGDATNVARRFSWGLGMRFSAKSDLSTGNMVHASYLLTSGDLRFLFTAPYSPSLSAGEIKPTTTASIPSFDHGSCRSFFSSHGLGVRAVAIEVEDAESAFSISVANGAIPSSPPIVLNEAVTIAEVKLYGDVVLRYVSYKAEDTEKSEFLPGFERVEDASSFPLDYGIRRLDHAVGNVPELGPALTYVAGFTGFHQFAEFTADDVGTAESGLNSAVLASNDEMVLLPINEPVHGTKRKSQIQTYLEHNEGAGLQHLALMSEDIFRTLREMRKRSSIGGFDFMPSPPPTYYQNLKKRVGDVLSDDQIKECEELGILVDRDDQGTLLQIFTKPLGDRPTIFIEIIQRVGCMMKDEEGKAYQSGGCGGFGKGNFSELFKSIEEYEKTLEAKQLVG
# Procedure summary: 14CO2 release assay from 14C-p-hydroxyphenylpyruvate with overexpressed protein
# Type: biochemical
# Measurement parameters: concentration inhibiting the enzyme 50%; inhibitor added in 10 μL acetone or dimethyl sulfoxide; read-out: I50 value derived from 14CO2 assay
Property measured: IC50 (nM)
Give bare numbers, in nM.

IC50 for "CS(=O)(=O)c1cc(C(F)(F)F)ccc1C(=O)c1cnoc1C1CC1" ? 409

These measurements were taken from patent US20030066102A1.
